B1: Hairpin Ribozyme (parent)
chain: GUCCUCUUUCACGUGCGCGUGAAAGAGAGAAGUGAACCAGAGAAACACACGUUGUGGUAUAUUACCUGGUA

- Variants of: B1
- method-description: self-cleavage, relative activity (ratio to wild type); higher = more cleavage; co-transcriptional
recorded-endpoint: self-cleavage
Please give only the number in your answer, with no unit.

As a guide, the following entries are already answered.
| mutation-id | measured-result |
| --- | --- |
| A11G A59G | 0.199 |
| A24C A45U | 0.0791 |
| A49C U70C | 0.0597 |
| A22G C65G | 0.249 |
| A61G U62G | 0.128 |

Q: Look up self-cleavage: A11U G25C
Result: 0.205

Q: Query (variant): A47C C48A ; field requested: self-cleavage
Result: 0.164

Q: Using the record for A28G A64U , report its self-cleavage.
Result: 0.159

Q: Find the recorded self-cleavage belonging to C6U G57A and report it.
Result: 0.117

Q: Please give the measured self-cleavage for this variant: G21C G56U
Result: 0.268

Q: What value of self-cleavage has been reported for the following variant? G34A U58A
Result: 1.09
